# Tested on: HT-29
# measurement.protocol: NCI tumour cell line growth inhibition, 48 h
Activity calls are given as the source filed them. No stated cut-off is given here; in the data, active = GI50 up to about 1.1 µM and inactive = higher.
Here, each record is paired with measured GI50 data.

[
  {
    "compound": "COC(=O)CNC(=O)CCC(C)[C@H]1CCC2C3C(C[C@H](OC(C)=O)[C@@]21C)[C@@]1(C)CCC2(C[C@H]1C[C@H]3OC(C)=O)OOC1(CCCCC1)OO2 (stereo partly specified)",
    "GI50": "2.69 µM (inactive)"
  },
  {
    "compound": "Cc1c(C(=O)CSc2nc3ccccc3[nH]2)c(=O)n(-c2ccccc2)n1C",
    "GI50": "> 100 µM (inactive)"
  },
  {
    "compound": "CC(C)COC(=O)N1N=NC2C3OC(CC3=O)C21 (stereo unspecified)",
    "GI50": "> 100 µM (inactive)"
  },
  {
    "compound": "COC(=O)C1CCC(=O)N1C(=O)Cc1ccc(OC)cc1 (stereo unspecified)",
    "GI50": "> 100 µM (inactive)"
  },
  {
    "compound": "CN(Nc1cc(=O)[nH]c(=O)[nH]1)c1ccccc1",
    "GI50": "> 100 µM (inactive)"
  },
  {
    "compound": "O=c1/c(=C/c2ccccc2F)sc2nc3ccccc3n12",
    "GI50": "> 100 µM (inactive)"
  },
  {
    "compound": "CCOC(=O)NC(Nc1cccc(C(F)(F)F)c1)(C(F)(F)F)C(F)(F)F",
    "GI50": "> 100 µM (inactive)"
  },
  {
    "compound": "CC(NCCS(=O)(=O)O)C(=O)O (stereo unspecified)",
    "GI50": "> 100 µM (inactive)"
  },
  {
    "compound": "O=C1C2=C(C3=NCCc4c[nH]c1c43)c1c(Br)cc(Br)cc1CCN2",
    "GI50": "2.45 µM (inactive)"
  },
  {
    "compound": "S=c1sc2nc(Cl)nc(Cl)c2s1",
    "GI50": "8.24 µM (inactive)"
  },
  {
    "compound": "COc1ccc2c(c1)C1(C=N2)CCN(C(C)=O)CC1",
    "GI50": "> 100 µM (inactive)"
  }
]

----------
# Tested on: SK-MEL-5
# measurement.protocol: NCI tumour cell line growth inhibition, 48 h
Activity calls are given as the source filed them. Cut-off read from the data, not from the text of the source: active = GI50 up to about 1.1 µM and inactive = higher.
GI50 for assorted compounds
experimental.readout: GI50

[
  {
    "compound": "CC1=CC(=O)NP(=O)(C23CC4CC(CC(C4)C2)C3)N1 (stereo unspecified)",
    "experimental.readout": "GI50",
    "result": "> 100 µM (inactive)"
  },
  {
    "compound": "COc1ccc(/C=C2\\C(=O)N(C(=O)c3ccc(NC(C)=O)cc3)N=C2C)cc1OC",
    "experimental.readout": "GI50",
    "result": "> 100 µM (inactive)"
  },
  {
    "compound": "CCCCCCCCCCCCCCCC(=O)OCC1OC(n2cc(F)c(=O)[nH]c2=O)C(NC(=O)N(CCCl)N=O)C(O)C1O (stereo unspecified)",
    "experimental.readout": "GI50",
    "result": "3.94 µM (inactive)"
  },
  {
    "compound": "CC(=O)Nc1ccccc1-c1cnc2ccccc2n1",
    "experimental.readout": "GI50",
    "result": "> 100 µM (inactive)"
  },
  {
    "compound": "Cc1cc2c(cc1N)C(C)C1(CCC(=O)N2Cc2ccccc2)OCCO1 (stereo unspecified)",
    "experimental.readout": "GI50",
    "result": "> 100 µM (inactive)"
  },
  {
    "compound": "COC(=O)C1(Cc2ccc3c(c2)CCC3)Cc2ccccc2C1=O (stereo unspecified)",
    "experimental.readout": "GI50",
    "result": "4.3 µM (inactive)"
  },
  {
    "compound": "CC1(C)COC(/C=C/C2=NC(C)(C)CO2)=N1",
    "experimental.readout": "GI50",
    "result": "14 µM (inactive)"
  },
  {
    "compound": "Nc1nc(N)c2c(n1)NC(=O)c1c(c3ccccc3n1Cc1ccc(Cl)cc1)C2",
    "experimental.readout": "GI50",
    "result": "15.3 µM (inactive)"
  },
  {
    "compound": "Cc1nc(-c2nc(C)c(C(=O)NN(C)C)s2)sc1C(=O)NN(C)C",
    "experimental.readout": "GI50",
    "result": "> 100 µM (inactive)"
  },
  {
    "compound": "CC(C)=CCCC(C)C1=C(O)C(=O)C(C)=CC1=O (stereo unspecified)",
    "experimental.readout": "GI50",
    "result": "11.6 µM (inactive)"
  },
  {
    "compound": "S=c1sc2nc(Cl)nc(Cl)c2s1",
    "experimental.readout": "GI50",
    "result": "8.73 µM (inactive)"
  }
]

----------
# Test system: MDA-MB-231
# measurement.protocol: NCI tumour cell line growth inhibition, 48 h
Active and inactive are the calls of the source. Rule as the data show it: active = GI50 up to about 1.1 µM and inactive = higher.

[
  {
    "molecule": "CC(N/N=N/c1ccc(-c2nc3ccccc3[nH]2)cc1)C(=O)O (stereo unspecified)",
    "GI50": "33.7 µM (inactive)"
  },
  {
    "molecule": "COC(=O)c1ccccc1CC(Cc1ccc2c(c1)CCC2)C(=O)OC (stereo unspecified)",
    "GI50": "> 100 µM (inactive)"
  },
  {
    "molecule": "CC1OC2=N[C@@H]1C(=O)N[C@@H](Cc1ccccc1)C1=N[C@H](C(=O)N[C@@H](Cc3ccccc3)C3=N[C@H](C(=O)N[C@H]2Cc2ccccc2)C(C)O3)C(C)O1 (stereo partly specified)",
    "GI50": "33 µM (inactive)"
  },
  {
    "molecule": "CC(C)(C)C1=NC(=S)SC2=NC(=O)C3(NN21)c1ccccc1-c1ccccc13",
    "GI50": "9.46 µM (inactive)"
  },
  {
    "molecule": "Cc1cc(O)c2c(c1)C(=O)C(c1c(C)cc3c(c1O)C(=O)C1OC1C3=O)=CC2=O (stereo unspecified)",
    "GI50": "2.03 µM (inactive)"
  },
  {
    "molecule": "COc1cccc([C@@H]2CC(=O)c3cc4c(cc3N2)OCO4)c1",
    "GI50": "> 100 µM (inactive)"
  },
  {
    "molecule": "CSCCCS/C1=C/CCCCCCCCCC1",
    "GI50": "> 100 µM (inactive)"
  },
  {
    "molecule": "CCOC(=O)/C(=C\\c1ccc(C#N)cc1)C(C)=O",
    "GI50": "15.6 µM (inactive)"
  },
  {
    "molecule": "O=C(COc1ccc(OCC(=O)N/N=C/c2ccc(-c3ccc(Cl)cc3Cl)o2)c(Cl)c1)N/N=C/c1ccc(-c2ccc(Cl)cc2Cl)o1",
    "GI50": "35 µM (inactive)"
  },
  {
    "molecule": "CCCCn1c(C)c(C)c2c1NN=C(C#N)S2(=O)=O",
    "GI50": "> 100 µM (inactive)"
  },
  {
    "molecule": "O=C1CCC2CCC1C2 (stereo unspecified)",
    "GI50": "> 100 µM (inactive)"
  },
  {
    "molecule": "CC1=C(C(N)=O)C(c2ccncc2)C(C#N)=C2SCC(=O)N12 (stereo unspecified)",
    "GI50": "> 100 µM (inactive)"
  },
  {
    "molecule": "CCCCCCc1cc2cc(-c3cn4ccsc4n3)c(=O)oc2cc1O",
    "GI50": "> 75 µM (inactive)"
  },
  {
    "molecule": "O=C(O)/C(=C\\c1ccccc1)Cc1ccccc1",
    "GI50": "> 100 µM (inactive)"
  },
  {
    "molecule": "COc1ccc(-n2cnc3c(NC(C)(C)C(=O)O)ncnc32)cc1",
    "GI50": "> 100 µM (inactive)"
  },
  {
    "molecule": "CSc1cc(-c2cccs2)sc1-c1cc(SC)c(-c2sc(-c3sc(-c4cccs4)cc3SC)cc2SC)s1",
    "GI50": "> 100 µM (inactive)"
  },
  {
    "molecule": "COCOc1cc(OC)ccc1C/C(=N/O)C(=O)OC",
    "GI50": "> 100 µM (inactive)"
  },
  {
    "molecule": "Nc1ccc(C(=O)NN2C(=O)[C@H](Cl)C2c2ccc(Cl)cc2)cc1 (stereo partly specified)",
    "GI50": "1.81 µM (inactive)"
  },
  {
    "molecule": "Cc1nc(-c2cccnc2)sc1C(=O)CC(=O)C(=O)Nc1cccc(NC(=O)C(=O)CC(=O)c2sc(-c3cccnc3)nc2C)n1",
    "GI50": "> 100 µM (inactive)"
  },
  {
    "molecule": "CCOC(=O)c1c[nH]cc1-c1cn(S(=O)(=O)c2ccccc2)cc1C",
    "GI50": "20.5 µM (inactive)"
  },
  {
    "molecule": "CN(C)CCn1c2c(c3ccccc31)CCc1ccccc1-2",
    "GI50": "13.9 µM (inactive)"
  }
]
